- assayed.target: Inhibitor of nuclear factor kappa-B kinase subunit epsilon (Homo sapiens, UniProt Q14164); further: in the data inactive means no Kd found up to 30 µM
- Sequence (Q14164 whole entry): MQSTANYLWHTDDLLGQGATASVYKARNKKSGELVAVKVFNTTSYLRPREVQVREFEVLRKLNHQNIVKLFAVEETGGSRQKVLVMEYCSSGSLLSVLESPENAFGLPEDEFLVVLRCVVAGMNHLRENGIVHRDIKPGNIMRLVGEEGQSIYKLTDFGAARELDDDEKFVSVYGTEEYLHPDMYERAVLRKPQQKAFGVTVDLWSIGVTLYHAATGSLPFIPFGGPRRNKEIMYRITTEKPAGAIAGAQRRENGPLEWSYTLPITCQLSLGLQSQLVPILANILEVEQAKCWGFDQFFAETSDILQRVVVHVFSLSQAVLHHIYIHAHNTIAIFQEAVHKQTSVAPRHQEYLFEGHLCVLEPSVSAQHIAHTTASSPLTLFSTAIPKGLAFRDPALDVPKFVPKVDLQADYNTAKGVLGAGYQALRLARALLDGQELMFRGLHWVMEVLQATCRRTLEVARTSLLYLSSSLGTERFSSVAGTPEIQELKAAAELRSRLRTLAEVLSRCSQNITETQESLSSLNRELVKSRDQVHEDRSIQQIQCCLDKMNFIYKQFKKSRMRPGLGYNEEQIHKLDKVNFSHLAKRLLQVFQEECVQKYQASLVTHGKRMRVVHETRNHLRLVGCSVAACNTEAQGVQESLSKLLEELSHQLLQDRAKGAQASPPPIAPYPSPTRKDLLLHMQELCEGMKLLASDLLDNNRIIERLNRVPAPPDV
The source made the active and inactive calls.
Return exactly one item of active, inactive

CCc1nc(C(N)=O)c(Nc2ccc(N3CCC(N4CCN(C)CC4)CC3)c(OC)c2)nc1NC1CCOCC1 [GILTERITINIB]	active

Consider now this further compound.
GET /call?item= CC(C)CC(=O)Nc1[nH]nc2c1CN(C(=O)C1CCN(C)CC1)C2(C)C [PHA-793887] returns the recorded outcome of this test.
inactive

----------
- assayed.target: Calcium/calmodulin-dependent protein kinase type IV (Homo sapiens); further: in the data inactive means no Kd found up to 30 µM
- Sequence (Q16566 whole entry): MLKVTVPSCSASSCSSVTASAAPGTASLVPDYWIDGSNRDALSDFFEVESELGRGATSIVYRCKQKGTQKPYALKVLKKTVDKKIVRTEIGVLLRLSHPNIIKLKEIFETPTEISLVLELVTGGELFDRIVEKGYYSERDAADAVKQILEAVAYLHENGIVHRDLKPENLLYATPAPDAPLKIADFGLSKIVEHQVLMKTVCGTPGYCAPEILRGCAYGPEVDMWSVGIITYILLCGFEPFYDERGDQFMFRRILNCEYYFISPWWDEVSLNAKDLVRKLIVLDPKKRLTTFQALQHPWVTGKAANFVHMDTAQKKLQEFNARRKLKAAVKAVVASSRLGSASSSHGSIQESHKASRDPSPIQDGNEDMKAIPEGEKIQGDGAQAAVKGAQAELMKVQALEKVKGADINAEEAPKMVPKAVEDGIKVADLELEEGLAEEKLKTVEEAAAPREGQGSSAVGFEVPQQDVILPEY
The source made the active and inactive calls.
Write down one outcome, taken from yes (1) for active, no (0) for inactive

Reference set (5 entries):
CCN(CCCOc1ccc2c(Nc3cc(CC(=O)Nc4cccc(F)c4)n[nH]3)ncnc2c1)CCOP(=O)(O)O	no (0)
C=CCN(/C=C1/C(=O)O[C@H](COC)[C@@]2(C)C1=C(O)C(=O)C1=C2[C@H](OC(C)=O)C[C@]2(C)C(=O)CC[C@@H]12)CC=C	no (0)
CNC(=O)c1cccc(-c2ccc3c(N4CCOC[C@@H]4C)nc(N4CCOC[C@@H]4C)nc3n2)c1	no (0)
COCCN1CCN(Cc2ccc(-c3n[nH]c4c3C(=O)c3c(NC(=O)NN5CCOCC5)cccc3-4)cc2)CC1	no (0)
CC1(COc2ccc3c(c2)ncn3-c2ccc3cccc(N4CCC(N)CC4)c3n2)COC1	no (0)

Given CC[C@@](C)(Nc1ccnc(-c2c[nH]c3ncccc23)n1)C(=O)NCC(F)(F)F , state the outcome it received in this test.
no (0)

Hello, I am checking results. What call was entered for COc1cccc2cc(-c3nc([C@H]4CC[C@H](C(=O)O)CC4)n4ncnc(N)c34)[nH]c12 ?
no (0)

How was Cc1c(Cn2c(C)nc3c(C(=O)O)cc(N4CCOCC4)cc32)cccc1C(F)(F)F classified in this test?
no (0)

What outcome does the record of this test show for c1cc(OCCN2CCCCC2)cc(-c2n[nH]c3ccc(-c4nc[nH]n4)cc23)c1 ?
no (0)

Hi, sorry to bother you, what did the test record for CCN1CCN(Cc2ccc(Nc3ncc(F)c(-c4cc(F)c5nc(C)n(C(C)C)c5c4)n3)nc2)CC1 ?
no (0)

Each compound tested received a call. Report the one for O=C(NOC[C@H](O)CO)c1ccc(F)c(F)c1Nc1ccc(I)cc1F .
no (0)

# fetch the recorded call for Cn1c(=O)c(F)c(Nc2ccc(I)cc2F)c2c(=O)n(C[C@@H](O)CO)cnc21 here
no (0)

Dear colleague, could you share the recorded outcome for Cc1cc(C(=O)Nc2cc(Oc3ccc4nc(NC(=O)C5CC5)cn4n3)ccc2C)n(C)n1 when you have a moment?
no (0)
